test system: IL-12 production in human PBMC or THP-1 cells; test: In vitro inhibition of IL-12 production in stimulated human PBMC or THP-1 cells (ELISA); type: cell-based; settings: representative in vitro IC50 data
endpoint-name: IC50

# line-notation, endpoint-name, observed-value
records = [
    ("Cc1cccc(/C=N/Nc2cc(N3CCOCC3)nc(OCCOC(=O)Nc3cccnc3)n2)c1", "IC50", "< 25 nM"),
    ("Cc1cccc(/C=N/Nc2cc(N3CCOCC3)nc(CCOC(=O)Nc3ccccc3)n2)c1", "IC50", "< 25 nM"),
    ("CCNC(=O)OCCc1nc(N/N=C/c2cccc(C)c2)cc(N2CCOCC2)n1", "IC50", "< 25 nM"),
    ("Cc1cccc(/C=N/Nc2cc(N3CCOCC3)nc(CCCOC(=O)Nc3ccc([N+](=O)[O-])cc3)n2)c1", "IC50", "< 25 nM"),
]

Inquiry: What measured IC50 goes with Cc1ccc(NC(=O)OCCc2nc(N/N=C/c3cccc(C)c3)cc(N3CCOCC3)n2)cc1 ?
Reply text: < 25 nM

Inquiry: // same read-out, input: Cc1cccc(/C=N/Nc2cc(N3CCOCC3)nc(CCOC(=O)Nc3ccc(Cl)cc3)n2)c1
Reply text: 25 to 50 nM

Inquiry: // same read-out, input: Cc1cccc(/C=N/Nc2cc(N3CCOCC3)nc(CCSc3nnnn3CCN(C)C)n2)c1
Reply text: < 25 nM

Inquiry: // same read-out, input: Cc1cccc(/C=N/Nc2cc(N3CCOCC3)nc(CCCOC(=O)NC3CCCCC3)n2)c1
Reply text: < 25 nM

Inquiry: // same read-out, input: Cc1cccc(/C=N/Nc2cc(N3CCOCC3)nc(CCCOC(=O)Nc3cccc4ccccc34)n2)c1
Reply text: > 50 nM

Inquiry: // same read-out, input: Cc1cccc(/C=N/Nc2cc(N3CCOCC3)nc(CCC(C)(C)OC(=O)Nc3cccc(C)c3)n2)c1
Reply text: 25 to 50 nM

Inquiry: // same read-out, input: Cc1cccc(/C=N/Nc2cc(N3CCOCC3)nc(CCOC(=O)Nc3ccc(C#N)cc3)n2)c1
Reply text: < 25 nM
